Tested on: Plasmodium falciparum
method description: Antiplasmodial activity against chloroquine-sensitive Plasmodium falciparum 3D7 infected in human erythrocytes assessed as parasite growth inhibition after 72 hrs by SYBR Green I dye-based fluorescence assay
Assay type: functional, organism-based
attribute measured: pIC50
API: returns pIC50 as number; meaning -log10 of concentration in mol/L.

>>> df
                                        smi      system_under_test  meas_value
0  CC(C)(C)Nc1nc2cc(-c3ccc(Cl)cc3)sc2c(=O)[nH]1.O=C(O)/C=C/C(=O)O  Plasmodium falciparum        6.77
1  Cc1ccc(-c2cc3nc(NC(C)(C)C)[nH]c(=O)c3s2)cc1  Plasmodium falciparum        6.85
2  Cc1ccc(-c2cc3nc(NC(C)(C)C)[nH]c(=O)c3s2)cc1.Cl  Plasmodium falciparum        7.46

Entry CC(C)(C)Nc1nc2cc(-c3ccc(Cl)cc3)sc2c(=O)[nH]1 needs its pIC50 filled in; supply it.
6.46

Give the reported pIC50 for this molecule. Cc1ccc(-c2cc3nc(NC(C)C)[nH]c(=O)c3s2)cc1
6.61
